assay: chemical recovery from spiked human plasma; higher = better extraction; details: pooled human plasma; extraction method: solvent precipitation (ACN + hexane)
Please note: True applies when chemical recovery is 70% or greater, and False applies otherwise.

- compound: "N#Cc1nn(-c2c(Cl)cc(C(F)(F)F)cc2Cl)c(N)c1SC(F)(F)F [Fipronil sulfide]"
  discrete-label: "False"
- compound: "Cc1nc(N(C)C)nc(OC(=O)N(C)C)c1C"
  discrete-label: "False"
- compound: "O=C(O)c1ccc(Cl)cc1Cl"
  discrete-label: "False"
- compound: "c1ccc(Nc2cccc3ccccc23)cc1"
  discrete-label: "True"
- compound: "CC1(C)C(C=C(Cl)Cl)C1C(=O)OCc1cccc(Oc2ccccc2)c1 (stereo not given)"
  discrete-label: "False"
- compound: "Cc1cc(Cc2ccc(N)c(C)c2)ccc1N"
  discrete-label: "False"
- compound: "C[N+]1(C)CCCCC1 [Mepiquat]"
  discrete-label: "True"
- compound: "Cn1sc(Cl)cc1=O"
  discrete-label: "False"
- compound: "CC(c1ccc(O)cc1)c1ccc(O)cc1"
  discrete-label: "False"
- compound: "O=C(O)c1cc(C(=O)O)cc([N+](=O)[O-])c1"
  discrete-label: "False"
- compound: "N#CCNC(=O)c1cnccc1C(F)(F)F"
  discrete-label: "True"
- compound: "O=S(=O)(O)C(F)(F)C(F)(F)C(F)(F)C(F)(F)C(F)(F)C(F)(F)C(F)(F)F"
  discrete-label: "False"
- compound: "O=C1Nc2ccc(Cl)cc2C(c2ccccc2)=NC1O (stereo not given)"
  discrete-label: "True"
- compound: "CC1CC(OC(=O)c2ccccc2O)CC(C)(C)C1 (stereo not given) [Homosalate]"
  discrete-label: "False"
- compound: "O=P(O)(O)C(F)(F)C(F)(F)C(F)(F)C(F)(F)C(F)(F)C(F)(F)F"
  discrete-label: "False"
- compound: "N#Cc1c[nH]cc1-c1cccc2c1OC(F)(F)O2"
  discrete-label: "False"
- compound: "CN1CCCC1=O"
  discrete-label: "False"
- compound: "O=S(=O)(O)c1nc2ccccc2s1"
  discrete-label: "True"
